Target: T1, Homo sapiens NCBD (nuclear coactivator binding domain) from CREBBP (Homo sapiens (human), UniProt Q92793 2061-2109)
T1 chain: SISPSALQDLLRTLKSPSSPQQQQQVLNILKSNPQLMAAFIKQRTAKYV
Assay: ITC
pKd: −log10 of the molar value.
reported.metric: pKd

1) EGQSDERALLDQLHTLLSNTDATGLEEIDRALGIPELVNQGQ (domain or fragment, Homo sapiens (human)) [Homo sapiens CID (CREBBP-binding domain) from NCOA3 (ACTR)]
6.40
